Test: Rat pharmacokinetic test
Assay type: in vivo, SD rats
Conditions: both sexes, rat, plasma, po; SD rats, multiple gavage, 30 mg/kg once per day for 7 days
Property name: half-life at 7 days (h)
Record the value in h, omitting the unit from your answer.

Sample O=C(O)C[S+]([O-])c1cc(NS(=O)(=O)c2ccc(Br)cc2)c2ccccc2c1O (stereo not shown) ; half-life at 7 days observed: 1.94

----------
Test: Rat pharmacokinetic test
Type: in vivo, SD rats
Conditions: both sexes, Sprague-Dawley (SD), rat, plasma, po; SD rats, single gavage, 10 mg/kg; median (min, max)
Property name: Tmax (min)
Record the value in min, omitting the unit from your answer.

Sample O=C(O)C[S+]([O-])c1cc(NS(=O)(=O)c2ccc(Br)cc2)c2ccccc2c1O (stereo not shown) ; Tmax observed: 30
